// reported MTD at 504 h for each item listed
# Protocol summary: Toxicity in po dosed athymic CD1 nude mouse assessed as body weight loss in excess 20% and deemed moribund administered as qd for 21 days measured 3 times per week during compound dosing
# Type: organism-based
# Study conditions: in vivo

{"columns": ["Molecule", "Measured"],
 "data": [
  ["O=C(N[C@H](c1ccccn1)C1CC1)c1ccc2[nH]nc(-c3ccc(N4[C@H]5CC[C@H]4CC(O)C5)cc3)c2c1 (stereo in doubt; 86)", "150 mg/kg"]
]}

Shifting focus to the molecule that follows.
Please supply the value of reported MTD at 504 h for the item O=C(N[C@@H](c1ccccn1)C1CC1)c1ccc2[nH]nc(-c3ccc(N4[C@H]5CC[C@H]4CC(O)C5)cc3)c2c1 (stereo in doubt; 75)
35 mg/kg

---

# Protocol summary: AUCinfinity in Sprague-Dawley rat at 5 mg/kg, po by LC-MS/MS analysis
# Type: ADME, organism-based
# Design: time infinity, dose 5 mg/kg, route oral
# Study conditions: plasma
Label yes for high-side AUC(0-inf) (at or above 300 ng·h/mL) and no for low-side AUC(0-inf) (below it).

# count of solved cases: 5
{"columns": ["Compound", "Class name"],
 "data": [
  ["O=C(N[C@H](c1ccccn1)C1CCCC1)c1ccc2[nH]nc(-c3ccc(N4[C@H]5CC[C@H]4CC(O)C5)cc3)c2c1 (stereo in doubt; 76)", "no"],
  ["O=C(N[C@H](c1ncccn1)C1CCCC1)c1ccc2[nH]nc(-c3ccc(N4[C@H]5CC[C@H]4CC(O)C5)cc3)c2c1 (stereo partly specified)", "no"],
  ["O=C(N[C@@H](c1ccccn1)C1CC1)c1ccc2[nH]nc(-c3ccc(N4[C@H]5CC[C@H]4CC(O)C5)cc3)c2c1 (stereo in doubt; 75)", "yes"],
  ["O=C(N[C@H](c1ccccn1)C1CC1)c1ccc2[nH]nc(-c3ccc(N4[C@H]5CC[C@H]4CC(O)C5)cc3)c2c1 (stereo in doubt; 86)", "yes"],
  ["O=C(N[C@H](CC1CC1)c1ccccn1)c1ccc2[nH]nc(-c3ccc(N4[C@H]5CC[C@H]4CC(O)C5)cc3)c2c1 (stereo partly specified)", "no"]
]}

Please look at the following compound next.
// inclusive: AUC(0-inf) at least 300 ng·h/mL? input: O=C(N[C@@H](c1ccccn1)C1CC1)c1ccc2[nH]nc(-c3ccc(N4C5CCC4COC5)cc3)c2c1
yes

---

# System: Maternal embryonic leucine zipper kinase (Homo sapiens, UniProt Q14680)
# Sequence (Q14680 whole entry): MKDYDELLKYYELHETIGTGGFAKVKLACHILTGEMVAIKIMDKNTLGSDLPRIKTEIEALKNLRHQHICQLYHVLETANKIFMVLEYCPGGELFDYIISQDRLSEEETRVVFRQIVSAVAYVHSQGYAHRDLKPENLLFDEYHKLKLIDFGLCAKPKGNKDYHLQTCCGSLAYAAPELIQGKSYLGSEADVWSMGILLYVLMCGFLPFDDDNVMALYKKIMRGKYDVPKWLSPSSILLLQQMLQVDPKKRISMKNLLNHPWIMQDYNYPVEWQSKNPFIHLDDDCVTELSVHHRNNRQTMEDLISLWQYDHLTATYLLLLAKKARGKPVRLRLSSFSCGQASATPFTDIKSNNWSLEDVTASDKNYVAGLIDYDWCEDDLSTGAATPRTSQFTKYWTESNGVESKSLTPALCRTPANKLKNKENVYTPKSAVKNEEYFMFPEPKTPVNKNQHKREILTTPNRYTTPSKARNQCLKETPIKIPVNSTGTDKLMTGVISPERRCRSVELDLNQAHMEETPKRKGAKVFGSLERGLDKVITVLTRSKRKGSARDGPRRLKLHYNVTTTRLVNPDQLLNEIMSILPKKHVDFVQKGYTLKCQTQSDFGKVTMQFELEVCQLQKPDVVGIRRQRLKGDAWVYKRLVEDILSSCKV
Quantity name: IC50
Write the numeric value and append its unit.

Report value: IC50, system: Maternal embryonic leucine zipper kinase (Homo sapiens, UniProt Q14680), molecule: O=C(N[C@@H](c1ccccn1)C1CC1)c1ccc2[nH]nc(-c3ccc(N4[C@H]5CC[C@H]4CC(O)C5)cc3)c2c1 (stereo in doubt; 75)
160 nM

---

// reported AUC for each item listed
# Protocol summary: AUC in athymic CD1 nude mouse at 10 mg/kg, po by LC-MS/MS analysis
# Format: ADME, organism-based
# Design: dose 10 mg/kg, route oral
# Study conditions: plasma
Write the answer as a number in ng·h/mL, unit excluded.

# count of solved cases: 2
{"columns": ["Molecule", "AUC, ng·h/mL"],
 "data": [
  ["CC(C)CC(NC(=O)c1ccc2[nH]nc(-c3ccc(O[C@H]4C[C@H]5CC[C@@H](C4)N5C=O)cc3)c2c1)c1ccccn1 (mixture of isomers)", 660],
  ["NS(=O)(=O)c1cccc(-c2n[nH]c3ccc(NC(=O)C(c4ccsc4)N4CCCC4)cc23)c1 (racemic)", 25]
]}

Please supply the value of reported AUC for the item O=C(NC(c1ccccc1)C1CC1)c1ccc2[nH]nc(-c3ccc(N4CCOCC4)cc3)c2c1 (racemic)
13500

---

# Protocol summary: Plasma protein binding in rat
# Format: ADME, cell-free
# Study conditions: read-out: PPB (converted)
Quantity name: fraction unbound
No unit in the answer, only the number.

Please supply the value of reported fraction unbound for the item O=C(N[C@@H](c1ccccn1)C1CC1)c1ccc2[nH]nc(-c3ccc(N4[C@H]5CC[C@H]4CC(O)C5)cc3)c2c1 (stereo in doubt; 75)
0.069

---

# Protocol summary: AUCinfinity in Sprague-Dawley rat at 1 mg/kg, iv by LC-MS/MS analysis
# Type: ADME, organism-based
# Parameters: time infinity, dose 1 mg/kg, route intravenous
# Study conditions: plasma
So basically: is AUC(0-inf) under 200 ng·h/mL? Then YES. Not under? Then NO.

Could you please tell me whether AUC(0-inf) recorded for O=C(N[C@H](c1ncccn1)C1CCCC1)c1ccc2[nH]nc(-c3ccc(N4[C@H]5CC[C@H]4CC(O)C5)cc3)c2c1 (stereo partly specified) is less than 200 ng·h/mL?
YES

Could you please tell me whether AUC(0-inf) recorded for O=C(N[C@H](CC1CC1)c1ccccn1)c1ccc2[nH]nc(-c3ccc(N4[C@H]5CC[C@H]4CC(O)C5)cc3)c2c1 (stereo partly specified) is less than 200 ng·h/mL?
NO

Could you please tell me whether AUC(0-inf) recorded for O=C(N[C@H](c1ccccn1)C1CCCC1)c1ccc2[nH]nc(-c3ccc(N4[C@H]5CC[C@H]4CC(O)C5)cc3)c2c1 (stereo in doubt; 76) is less than 200 ng·h/mL?
YES

Could you please tell me whether AUC(0-inf) recorded for O=C(N[C@H](c1ccccn1)C1CC1)c1ccc2[nH]nc(-c3ccc(N4[C@H]5CC[C@H]4CC(O)C5)cc3)c2c1 (stereo in doubt; 86) is less than 200 ng·h/mL?
NO

Could you please tell me whether AUC(0-inf) recorded for O=C(N[C@@H](c1ccccn1)C1CC1)c1ccc2[nH]nc(-c3ccc(N4C5CCC4COC5)cc3)c2c1 is less than 200 ng·h/mL?
NO

Could you please tell me whether AUC(0-inf) recorded for O=C(N[C@@H](c1ccccn1)C1CC1)c1ccc2[nH]nc(-c3ccc(N4[C@H]5CC[C@H]4CC(O)C5)cc3)c2c1 (stereo in doubt; 75) is less than 200 ng·h/mL?
NO

---

# Protocol summary: Cmax in athymic CD1 nude mouse at 10 mg/kg, po by LC-MS/MS analysis
# Format: ADME, organism-based
# Set-up: dose 10 mg/kg, route oral
# Study conditions: athymic CD1 nude, in vivo
// reported Cmax for each item listed
Write the answer as a number in ng/mL, unit excluded.

{"columns": ["Molecule", "Cmax (ng/mL)"],
 "data": [
  ["O=C(N[C@@H](c1ccccn1)C1CC1)c1ccc2[nH]nc(-c3ccc(N4C5CCC4COC5)cc3)c2c1", 1500],
  ["O=C(N[C@H](CC1CC1)c1ccccn1)c1ccc2[nH]nc(-c3ccc(N4[C@H]5CC[C@H]4CC(O)C5)cc3)c2c1 (some centres undefined)", 1200],
  ["O=C(N[C@H](c1ncccn1)C1CCCC1)c1ccc2[nH]nc(-c3ccc(N4[C@H]5CC[C@H]4CC(O)C5)cc3)c2c1 (some centres undefined)", 750]
]}

Shifting focus to the molecule that follows.
Please supply the value of reported Cmax for the item CC(C)[C@H](NC(=O)c1ccc2[nH]nc(-c3ccc(N4[C@H]5CC[C@H]4CC(O)C5)cc3)c2c1)c1ccccc1Cl (some centres undefined)
330

---

# Protocol summary: Half life in rat liver microsomes at 1 uM by LC-MS analysis
# Type: ADME
# Study conditions: liver microsomes
Quantity name: half-life at 1 µM (min)
Write the answer as a number in min, unit excluded.

{"columns": ["Compound", "half-life at 1 µM [min]"],
 "data": [
  ["O=C(NCC1(N2CCOCC2)CCCCC1)c1ccc2[nH]nc(-c3ccc(N4CCOCC4)cc3)c2c1", 1.5],
  ["O=C(CC1(N2CCOCC2)CCCCC1)Nc1ccc2[nH]nc(-c3ccc(N4CCOCC4)cc3)c2c1", 10],
  ["O=C(NCC1(N2CCOCC2)CCCCC1)c1ccc2[nH]nc(-c3ccc(N4C5CCC4COC5)cc3)c2c1", 9.6]
]}

Shifting focus to the compound that follows.
Please supply the value of reported half-life at 1 µM for the item O=C(N[C@@H](c1ccccn1)C1CCCC1)c1ccc2[nH]nc(-c3ccc(N4[C@H]5CC[C@H]4CC(O)C5)cc3)c2c1 (some centres not stated)
22

---

# Protocol summary: Half life in dog liver microsomes at 1 uM by LC-MS analysis
# Type: ADME, Canis lupus familiaris
Quantity name: half-life at 1 µM

Please supply the value of reported half-life at 1 µM for the item O=C(N[C@@H](c1ccccn1)C1CC1)c1ccc2[nH]nc(-c3ccc(N4[C@H]5CC[C@H]4CC(O)C5)cc3)c2c1 (stereo in doubt; 75)
> 1 h

---

# Protocol summary: AUCinfinity in athymic CD1 nude mouse at 10 mg/kg, po by LC-MS/MS analysis
# Format: ADME, organism-based, Plasma
# Parameters: time infinity, dose 10 mg/kg, route oral
# Study conditions: athymic CD1 nude, plasma
Quantity name: AUC(0-inf)
Write the numeric value and append its unit.

# count of solved cases: 5
{"columns": ["Molecule", "AUC(0-inf)"],
 "data": [
  ["O=C(N[C@H](c1ccccn1)C1CC1)c1ccc2[nH]nc(-c3ccc(N4[C@H]5CC[C@H]4CC(O)C5)cc3)c2c1 (stereo in doubt; 74)", "1600 ng·h/mL"],
  ["O=C(N[C@H](c1ccccc1)C1CC1)c1ccc2[nH]nc(-c3ccc(N4[C@H]5CC[C@H]4CC(O)C5)cc3)c2c1 (stereo partly drawn)", "670 ng·h/mL"],
  ["CC(C)[C@H](NC(=O)c1ccc2[nH]nc(-c3ccc(N4[C@H]5CC[C@H]4CC(O)C5)cc3)c2c1)c1ccccc1Cl (stereo partly drawn)", "620 ng·h/mL"],
  ["O=C(N[C@@H](c1ccccn1)C1CC1)c1ccc2[nH]nc(-c3ccc(N4[C@H]5CC[C@H]4CC(O)C5)cc3)c2c1 (stereo in doubt; 75)", "3000 ng·h/mL"],
  ["O=C(N[C@H](CC1CC1)c1ccccn1)c1ccc2[nH]nc(-c3ccc(N4[C@H]5CC[C@H]4CC(O)C5)cc3)c2c1 (stereo partly drawn)", "1900 ng·h/mL"]
]}

Please supply the value of reported AUC(0-inf) for the item O=C(N[C@H](c1ncccn1)C1CCCC1)c1ccc2[nH]nc(-c3ccc(N4[C@H]5CC[C@H]4CC(O)C5)cc3)c2c1 (stereo partly drawn)
970 ng·h/mL

Please supply the value of reported AUC(0-inf) for the item O=C(N[C@H](c1ccccn1)C1CCCC1)c1ccc2[nH]nc(-c3ccc(N4[C@H]5CC[C@H]4CC(O)C5)cc3)c2c1 (stereo in doubt; 76)
2600 ng·h/mL

Please supply the value of reported AUC(0-inf) for the item O=C(N[C@@H](c1ccccn1)C1CC1)c1ccc2[nH]nc(-c3ccc(N4C5CCC4COC5)cc3)c2c1
2100 ng·h/mL
